What pIC50 was measured for each of the following?
study.system: OGA (S400 O-GLCNAC), HEK-293T cells transfected with Tau-V5 (Homo sapiens (Human), UniProt O60502)
Sequence (O60502 whole entry): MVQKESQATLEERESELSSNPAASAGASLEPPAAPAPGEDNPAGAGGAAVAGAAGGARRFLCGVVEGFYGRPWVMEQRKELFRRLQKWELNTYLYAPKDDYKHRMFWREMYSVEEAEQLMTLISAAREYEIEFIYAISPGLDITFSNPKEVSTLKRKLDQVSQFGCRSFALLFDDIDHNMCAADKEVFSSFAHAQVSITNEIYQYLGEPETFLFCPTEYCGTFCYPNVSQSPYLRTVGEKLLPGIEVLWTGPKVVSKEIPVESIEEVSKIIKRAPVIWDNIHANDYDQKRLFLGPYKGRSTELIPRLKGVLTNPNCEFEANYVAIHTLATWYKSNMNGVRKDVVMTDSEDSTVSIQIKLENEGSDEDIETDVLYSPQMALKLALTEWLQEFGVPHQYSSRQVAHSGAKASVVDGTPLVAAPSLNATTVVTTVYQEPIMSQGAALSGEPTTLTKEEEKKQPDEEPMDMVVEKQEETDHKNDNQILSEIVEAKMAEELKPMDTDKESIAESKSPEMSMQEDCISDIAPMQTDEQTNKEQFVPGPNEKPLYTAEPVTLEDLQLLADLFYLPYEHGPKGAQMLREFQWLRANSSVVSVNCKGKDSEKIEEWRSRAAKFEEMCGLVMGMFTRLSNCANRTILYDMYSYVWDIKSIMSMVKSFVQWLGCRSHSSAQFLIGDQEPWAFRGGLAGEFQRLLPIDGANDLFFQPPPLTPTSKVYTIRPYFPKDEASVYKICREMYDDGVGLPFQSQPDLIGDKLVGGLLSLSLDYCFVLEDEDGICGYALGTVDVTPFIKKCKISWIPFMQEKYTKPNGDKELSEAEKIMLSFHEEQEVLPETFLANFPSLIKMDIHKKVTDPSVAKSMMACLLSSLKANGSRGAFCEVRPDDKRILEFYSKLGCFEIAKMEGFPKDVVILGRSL
experimental.protocol: Cellular OGA-Tau MSD Assay
Assay type: cell-based
measurement.parameters: HEK-293T cells, Tau-S400-GlcNAc MSD readout
# log scale: pIC50 equals minus log10 of the concentration in mol/L

Exercise: I have this compound here, COc1cc(O[C@@H]2C[C@H](C)N(Cc3sc(NC(C)=O)nc3Cl)C2)ncn1 [Example 1-46] , and I need its recorded pIC50.
Solution: 7.42

Exercise: Request: COc1cc(O[C@@H]2CCCN(Cc3cnc(NC(C)=O)s3)C2)ncn1 [Example 1-42]
Solution: 7.09

Exercise: Can you check CC(=O)Nc1ncc(CN2C[C@H](Oc3cc(OC(C)C)ncn3)C[C@@H]2C)s1 [Example 1-127] next?
Solution: 8.10

Exercise: How about this compound: COc1cc(O[C@H]2CCCN(Cc3sc(NC(C)=O)nc3F)C2)ncn1 [Example 1-32]
Solution: 7.49

Exercise: Here is the next compound: CCOc1cc(O[C@@H]2C[C@H](C)N(Cc3cnc(NC(C)=O)s3)C2)ncn1 [Example 1-126]
Solution: 8.70

Exercise: What about CC(=O)Nc1nc(F)c(CN2C[C@H](Oc3cc(C)nc(C)c3)CC[C@@H]2C)s1 [Example 1-57] ?
Solution: 8.52

Exercise: Record: CC(=O)Nc1ncc(CN2C[C@H](Oc3ccnc(C)c3)C[C@@H]2C)s1 [Example 1-82]
Solution: 8.70

Exercise: Let us now turn to [2H]C(c1cnc(NC(C)=O)s1)N1C[C@H](Oc2cc(OC)ncn2)C[C@@H]1C (single isomer, unassigned) [Example 1-158]
Solution: 8.52

Exercise: Record: COc1cc(O[C@@H]2C[C@@H](C)N(Cc3sc(NC(C)=O)nc3F)C2)ncn1 [Example 1-29]
Solution: 7.01

Exercise: Quick one: CC(=O)Nc1ncc(CN2C[C@H](Oc3ccnc(C)n3)C[C@@H]2C)s1 [Example 1-104]
Solution: 8.70

Exercise: Same for CC(=O)Nc1nc(F)c(CN2C[C@H](Oc3ccnc(F)c3)C[C@@H]2C)s1 [Example 1-97]
Solution: 8.52

Exercise: Try this compound next: CC(=O)Nc1nc(F)c(CN2C[C@H](Oc3ccc(F)nc3)C[C@@H]2C)s1 [Example 1-85]
Solution: 8.70

Exercise: Moving on to CC(=O)Nc1ncc(CN2C[C@H](Oc3cc(C(C)=O)ncn3)C[C@@H]2C)s1 [Example 1-76]
Solution: 7.60

Exercise: Also COc1cc(O[C@H]2C[C@H](C)N(Cc3sc(NC(C)=O)nc3F)C2)ncn1 [Example 1-30] , if possible.
Solution: 7.68

Exercise: Now consider CC(=O)Nc1ncc(CN2CC[C@@H](Oc3cc(C)nc(C)c3)C2)s1 [Example 1-59] and answer again.
Solution: 8.10

Exercise: Quick one: CC(=O)Nc1nc(F)c(CN2C[C@H](Oc3cncnc3)C[C@@H]2C)s1 [Example 1-119]
Solution: 7.72

Exercise: Same question for CC(=O)Nc1nc(F)c(CN2C[C@H](Oc3cc(F)ccn3)C[C@@H]2C)s1 [Example 1-96] please.
Solution: 9.00

Exercise: Next compound: CO[C@H]1C[C@@H](Oc2cc(O[C@@H]3C[C@H](C)N(Cc4cnc(NC(C)=O)s4)C3)ncn2)C1 [Example 1-123]
Solution: 8.30

Exercise: Now consider COc1cnc(O[C@@H]2C[C@H](C)N(Cc3cnc(NC(C)=O)s3)C2)cn1 [Example 1-73] .
Solution: 8.52

Exercise: And what about the compound CC(=O)Nc1ncc(CN2C[C@@H](Oc3ccc(F)cn3)C[C@@H]2C)s1 [Example 1-9] ?
Solution: 7.49

Exercise: Okay, and CC(=O)Nc1ncc(CN2C[C@H](Oc3cnc(Cl)cc3C)C[C@@H]2C)s1 [Example 1-17] ?
Solution: 8.70

Exercise: What do you get for [2H]C([2H])(c1sc(NC(C)=O)nc1F)N1C[C@H](Oc2cc(OC)ncn2)C[C@@H]1C (single isomer, unassigned) [Example 1-161] ?
Solution: 8.40
